Source of measurements: patent US6008372A

- Target under test: rat brain farnesyl protein transferase (Rattus norvegicus, UniProt Q02293+Q04631)
- Construct: 40-fold purified rat brain farnesyl protein transferase; from tissue; host or cells: rat brain
- Protocol summary: Protein:farnesyltransferase (PFT/FPT) inhibitory activity assay
- Type: biochemical
- Measurement setup: Hepes (without 5 mM phosphate); read-out: Farnesyl Protein Transferase Inhibition, Hepes, IC50
Counter-ions that a name gives are not always drawn.
Test readout: IC50
Put your answer as a value accompanied by its unit after it.

# example entries with known answers
CC(C)NC(=O)[C@H](Cc1c[nH]cn1)NC(=O)C(Cc1cccc2ccccc12)Cc1cccc2ccccc12 | 4.6 µM
COC(=O)[C@H](Cc1c[nH]cn1)NCC(Cc1cccc2ccccc12)Cc1cccc2ccccc12 | 0.37 µM
COC(=O)[C@@H](Cc1c[nH]cn1)NC(=O)C(Cc1cccc2ccccc12)Cc1cccc2ccccc12 | 12 µM
O=C(N[C@@H](Cc1c[nH]cn1)C(=O)OCCn1ccnc1)C(Cc1cccc2ccccc12)Cc1cccc2ccccc12 | 1.1 µM
O=C(N[C@@H](Cc1c[nH]cn1)C(=O)NCCn1ccnc1)C(Cc1cccc2ccccc12)Cc1cccc2ccccc12 | 1.9 µM

*Q* Which IC50 value is on record for COC(=O)[C@H](Cc1c[nH]cn1)NC(=O)C(CC1CCCC2CCCCC21)CC1CCCC2CCCCC21 (stereo partly drawn) ?
*A* 0.31 µM

*Q* Continue with C=CCOC(=O)[C@H](Cc1c[nH]cn1)NC(=O)C(Cc1cccc2ccccc12)Cc1cccc2ccccc12
*A* 0.4 µM

*Q* Ok, now COC(=O)COC(=O)[C@H](Cc1c[nH]cn1)NC(=O)C(Cc1cccc2ccccc12)Cc1cccc2ccccc12
*A* 5.5 µM

*Q* Same thing, different compound: O=C(N[C@H](Cc1c[nH]cn1)C(=O)O)C(Cc1cccc2ccccc12)Cc1cccc2ccccc12
*A* 6.1 µM

*Q* And for C=CCCOC(=O)[C@H](Cc1c[nH]cn1)NC(=O)C(Cc1cccc2ccccc12)Cc1cccc2ccccc12 ?
*A* 1.2 µM

*Q* Let us now turn to CCCOC(=O)[C@H](Cc1c[nH]cn1)NC(=O)C(Cc1cccc2ccccc12)Cc1cccc2ccccc12
*A* 0.11 µM

*Q* What about N#CCCOC(=O)[C@H](Cc1c[nH]cn1)NC(=O)C(Cc1cccc2ccccc12)Cc1cccc2ccccc12 ?
*A* 0.08 µM

*Q* Do the same for COC(=O)[C@H](Cc1c[nH]cn1)NC(=O)C(Cc1ccccc1)Cc1cccc2ccccc12 (stereo partly drawn) please
*A* 1.6 µM

*Q* What about this compound? O=C(N[C@@H](Cc1c[nH]cn1)C(=O)NCCc1c[nH]cn1)C(Cc1cccc2ccccc12)Cc1cccc2ccccc12
*A* 4.8 µM

*Q* Follow-up entry: O=C(N[C@@H](Cc1c[nH]cn1)C(=O)OCCO)C(Cc1cccc2ccccc12)Cc1cccc2ccccc12 [Example 42, trifluoroacetate salt]
*A* 1.8 µM

----------
- Target under test: rat brain farnesyl protein transferase (Rattus norvegicus, UniProt Q02293+Q04631)
- Construct: 40-fold purified rat brain farnesyl protein transferase; from tissue; host or cells: rat brain
- Protocol summary: Protein:farnesyltransferase (PFT/FPT) inhibitory activity assay
- Type: biochemical
- Measurement setup: Hepes (without 5 mM phosphate); read-out: Farnesyl Protein Transferase Inhibition, Hepes, IC50
Test readout: pIC50
On this scale, pIC50 is minus log10 of a concentration expressed in M (mol/L).

O=C(N[C@@H](Cc1c[nH]cn1)C(=O)NCCOCc1ccccc1)C(Cc1cccc2ccccc12)Cc1cccc2ccccc12 | 6.13
CC(C#N)OC(=O)[C@H](Cc1c[nH]cn1)NC(=O)C(Cc1cccc2ccccc12)Cc1cccc2ccccc12 (mixture of isomers) | 6.19
COC(=O)[C@H](Cc1c[nH]cn1)NC(=O)C(Cc1csc2ccccc12)Cc1csc2ccccc12 | 5.92

*Q* Tell me reported pIC50 for OC[C@H](Cc1c[nH]cn1)NCC(Cc1cccc2ccccc12)Cc1cccc2ccccc12 , tested with rat brain farnesyl protein transferase (Rattus norvegicus, UniProt Q02293+Q04631).
*A* 6.26

*Q* Same for COC(=O)[C@H](Cc1cncn1C)NC(=O)C(Cc1cccc2ccccc12)Cc1cccc2ccccc12
*A* 6.38

*Q* Cool, now CNC(=O)[C@H](Cc1c[nH]cn1)NCC(Cc1cccc2ccccc12)Cc1cccc2ccccc12
*A* 6.70

*Q* Again, but for CN(C)C(=O)[C@H](Cc1c[nH]cn1)NC(=O)C(Cc1cccc2ccccc12)Cc1cccc2ccccc12
*A* 5.25
